UniProt:P33261: recorded IC50 for assorted molecules
Sequence (P33261 whole entry): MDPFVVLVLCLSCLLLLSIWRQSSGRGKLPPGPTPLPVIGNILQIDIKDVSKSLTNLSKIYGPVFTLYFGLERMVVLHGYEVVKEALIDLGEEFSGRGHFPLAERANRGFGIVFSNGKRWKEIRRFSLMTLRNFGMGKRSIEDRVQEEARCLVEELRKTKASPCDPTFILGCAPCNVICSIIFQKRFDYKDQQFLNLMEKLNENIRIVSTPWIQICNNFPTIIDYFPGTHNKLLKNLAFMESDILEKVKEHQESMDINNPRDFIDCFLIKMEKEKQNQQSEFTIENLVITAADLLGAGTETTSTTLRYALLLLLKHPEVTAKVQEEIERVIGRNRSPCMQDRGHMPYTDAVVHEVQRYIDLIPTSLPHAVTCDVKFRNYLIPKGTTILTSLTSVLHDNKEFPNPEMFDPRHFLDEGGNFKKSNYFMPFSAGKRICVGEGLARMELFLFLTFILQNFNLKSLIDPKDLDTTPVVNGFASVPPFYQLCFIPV
Answers are plain numbers, in µM.

In [3]: df
Out[3]:
                                        smi  quantity_measured  result_number
0  O=C([C@@H](c1ccc(Cl)cc1)c1cccnc1)N1CCN(c2ccc(C(F)(F)F)cc2)CC1               IC50             12

Now, please, on to the next molecule.
Challenge: Given FC(F)(F)c1ccc(N(c2cccnc2)C2CCN(c3ccc(C(F)(F)F)cn3)CC2)cc1 , state its recorded IC50.
Response given: 9.8

====

Target: Cytochrome P450 2C9 (Homo sapiens)
Sequence (P11712 whole entry): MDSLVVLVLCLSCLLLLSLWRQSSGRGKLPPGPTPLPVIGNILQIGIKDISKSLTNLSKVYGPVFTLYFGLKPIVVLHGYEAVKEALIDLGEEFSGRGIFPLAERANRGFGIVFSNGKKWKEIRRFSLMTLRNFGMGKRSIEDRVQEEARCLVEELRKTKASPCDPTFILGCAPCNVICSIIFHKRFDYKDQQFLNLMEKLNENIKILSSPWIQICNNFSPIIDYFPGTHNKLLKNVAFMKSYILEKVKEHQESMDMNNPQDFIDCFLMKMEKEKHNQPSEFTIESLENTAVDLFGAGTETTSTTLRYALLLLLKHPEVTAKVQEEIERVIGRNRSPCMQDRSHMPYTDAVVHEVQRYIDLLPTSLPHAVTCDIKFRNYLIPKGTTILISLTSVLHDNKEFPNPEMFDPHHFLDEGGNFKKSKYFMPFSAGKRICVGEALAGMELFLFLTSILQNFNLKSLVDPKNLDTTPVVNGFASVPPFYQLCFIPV
So I've got a bunch of compounds here, and I need their pIC50 values.
Give bare numbers, as −log10 of the molar value.

>>> print(df.to_string())
                                   compound  result_number
0  O=C([C@@H](c1ccc(Cl)cc1)c1cccnc1)N1CCN(c2ccc(C(F)(F)F)cc2)CC1 [EPL-BS1246 (UDO)]           5.05

Challenge: Can you look up the measured pIC50 of FC(F)(F)c1ccc(N(c2cccnc2)C2CCN(c3ccc(C(F)(F)F)cn3)CC2)cc1 [EPL-BS0967 (UDD)] for me?
Response given: 5.09
